Kindly state log10 Ki for each of the entries shown.
target: Tumour suppressor p53/oncoprotein Mdm2 (Homo sapiens, UniProt Q00987); test: Inhibition of p53-MDM2 (unknown origin) interaction expressed in Escherichia coli BL-21 (DE3) after 1 hr by fluorescence polarization assay
Sequence (P04637 whole entry): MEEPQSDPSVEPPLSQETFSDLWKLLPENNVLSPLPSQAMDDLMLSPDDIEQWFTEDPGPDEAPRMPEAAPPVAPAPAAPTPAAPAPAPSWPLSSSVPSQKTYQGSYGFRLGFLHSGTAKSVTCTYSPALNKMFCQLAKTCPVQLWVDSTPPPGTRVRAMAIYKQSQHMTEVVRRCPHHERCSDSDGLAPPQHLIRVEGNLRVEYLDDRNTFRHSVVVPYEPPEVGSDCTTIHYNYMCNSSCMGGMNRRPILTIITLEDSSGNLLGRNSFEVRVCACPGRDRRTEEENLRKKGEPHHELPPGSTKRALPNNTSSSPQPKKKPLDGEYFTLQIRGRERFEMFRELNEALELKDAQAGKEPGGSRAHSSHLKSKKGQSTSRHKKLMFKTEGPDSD
Sequence (Q00987 whole entry): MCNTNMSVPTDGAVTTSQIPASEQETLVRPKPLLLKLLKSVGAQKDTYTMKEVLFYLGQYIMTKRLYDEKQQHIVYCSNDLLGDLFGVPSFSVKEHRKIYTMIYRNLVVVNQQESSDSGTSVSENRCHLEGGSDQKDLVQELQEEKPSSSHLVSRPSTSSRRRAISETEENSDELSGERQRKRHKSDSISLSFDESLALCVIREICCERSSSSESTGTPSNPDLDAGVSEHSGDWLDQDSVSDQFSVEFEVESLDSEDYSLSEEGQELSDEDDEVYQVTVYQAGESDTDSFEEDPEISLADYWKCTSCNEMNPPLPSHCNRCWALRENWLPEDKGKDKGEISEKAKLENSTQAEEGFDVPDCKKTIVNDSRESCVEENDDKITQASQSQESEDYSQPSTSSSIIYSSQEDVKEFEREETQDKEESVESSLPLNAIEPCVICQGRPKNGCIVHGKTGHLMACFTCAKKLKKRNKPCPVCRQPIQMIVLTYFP
Note the log scale: values are log10 of Ki expressed in nM.

# log10 Ki (molecule: "CCCCNC(=O)c1c(N)sc(-c2ccc(Cl)cc2)c1-c1ccc(Cl)cc1" ) is 2.74

# log10 Ki (molecule: "Nc1sc(-c2ccc(Cl)cc2)c(-c2ccc(Cl)cc2)c1C(=O)NC1CC1" ) is 2.73

# log10 Ki (molecule: "COc1ccc(CNC(=O)c2c(N)sc(-c3ccc(Cl)cc3)c2-c2ccc(Cl)cc2)cc1" ) is 2.81

# log10 Ki (molecule: "COC(=O)c1c(N)sc(-c2ccc(Cl)cc2)c1-c1ccc(Cl)cc1" ) is 3.18

# log10 Ki (molecule: "Nc1sc(-c2ccc(Cl)cc2)c(-c2ccc(Cl)cc2)c1C(=O)N1CCC(=O)CC1" ) is 3.34

# log10 Ki (molecule: "Nc1sc(-c2ccc(Cl)cc2)c(-c2ccc(Cl)cc2)c1C(=O)N1CCCCC1=O" ) is 3.19

# log10 Ki (molecule: "CC(C)CNC(=O)c1c(N)sc(-c2ccc(Cl)cc2)c1-c1ccc(Cl)cc1" ) is 3.62

# log10 Ki (molecule: "Nc1sc(-c2ccc(Cl)cc2)c(-c2ccc(Cl)cc2)c1C(=O)N1CCOCC1" ) is 2.63

# log10 Ki (molecule: "CC(=O)Nc1sc(-c2ccc(Cl)cc2)c(-c2ccc(Cl)cc2)c1C(=O)N1CCCCC1" ) is 3.55

# log10 Ki (molecule: "Nc1sc(-c2ccc(Cl)cc2)c(-c2ccc(Cl)cc2)c1C(=O)N1CCCCC1" ) is 3.08

# log10 Ki (molecule: CC1CN(C(=O)c2c(N)sc(-c3ccc(Cl)cc3)c2-c2ccc(Cl)cc2)CCN1 (centres undefined) ) is 4.25

# log10 Ki (molecule: "Nc1sc(-c2ccc(Cl)cc2)c(-c2ccc(Cl)cc2)c1C(=O)N1CCC(=O)CC1=O" ) is 3.55

# log10 Ki (molecule: "Nc1sc(-c2ccc(Cl)cc2)c(-c2ccc(Cl)cc2)c1C(=O)N1CCCC1" ) is 2.87

# log10 Ki (molecule: "CN1CCN(C(=O)c2c(N)sc(-c3ccc(Cl)cc3)c2-c2ccc(Cl)cc2)CC1" ) is 3.18

# log10 Ki (molecule: "Nc1sc(-c2ccc(Cl)cc2)c(-c2ccc(Cl)cc2)c1C(=O)NC1CCCCC1" ) is 2.36

# log10 Ki (molecule: "Nc1sc(-c2ccc(Cl)cc2)c(-c2ccc(Cl)cc2)c1C(=O)NC1CCC1" ) is 3.05

# log10 Ki (molecule: "Nc1sc(-c2ccc(Cl)cc2)c(-c2ccc(Cl)cc2)c1C(=O)N1CCNCC1" ) is 3.83

# log10 Ki (molecule: Nc1sc(-c2ccc(Cl)cc2)c(-c2ccc(Cl)cc2)c1C(=O)NC1CCC(O)CC1 (centres undefined) ) is 3.00

# log10 Ki (molecule: "CC1CCN(C(=O)c2c(N)sc(-c3ccc(Cl)cc3)c2-c2ccc(Cl)cc2)CC1" ) is 2.90

# log10 Ki (molecule: "CC(C)(C)NC(=O)c1c(N)sc(-c2ccc(Cl)cc2)c1-c1ccc(Cl)cc1" ) is 2.91

# log10 Ki (molecule: "Nc1sc(-c2ccc(Cl)cc2)c(-c2ccc(Cl)cc2)c1C(=O)NCc1ccccc1" ) is 2.18

# log10 Ki (molecule: "Nc1sc(-c2ccc(Cl)cc2)c(-c2ccc(Cl)cc2)c1C(=O)NC1CCCC1" ) is 2.73

Source: ChEMBL document CHEMBL2384917
